Tested on: OsWRKY34 (Oryza sativa, UniProt Q0JBA9 1-250)
Sequence (Q0JBA9 entry or part of it): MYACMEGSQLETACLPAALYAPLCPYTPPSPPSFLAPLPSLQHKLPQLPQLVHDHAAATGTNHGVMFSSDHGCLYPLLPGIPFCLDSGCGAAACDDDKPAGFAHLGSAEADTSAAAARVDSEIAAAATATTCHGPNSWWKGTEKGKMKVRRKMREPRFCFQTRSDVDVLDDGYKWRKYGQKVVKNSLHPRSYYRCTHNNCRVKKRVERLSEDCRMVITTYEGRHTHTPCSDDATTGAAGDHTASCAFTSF
Assay info: protein-binding microarray (RPBM); PBS, 2% BSA, 51.3 ng/ul salmon testes DNA, 50 uM zinc acetate, 200 nM TF, 25 C, 1 h; high values mean tight binding
Condition info: protein: recombinant; tags: N-terminal polyhistidine and DsRed monomer fusion (pET32a); label: CyDye5-dUTP incorporated in the synthesized complementary strand; 3' TTTTT single-stranded linker to array surface; dsDNA, one strand shown
Over roughly 68,000 sequences, “fluorescence intensity (a.u.)” has its median near 9,100; the highest 2% begin near 16,000. Many of the other results were omitted from the sample, so the highest values are more common in it than they were.
Value type: binding signal

input: Record GCCAGTTAGGGACCTAGGGACTTGGGTTGGGCGGGAACTTCGGAGTCACCTAGTGCAG : what is its binding signal with OsWRKY34 (Oryza sativa, UniProt Q0JBA9 1-250)?
output: 14100 fluorescence intensity (a.u.)

input: Record GGGGAGGAATTATGGACTATTTGGATGGGCTTTTTTTACTCGGAGTCACCTAGTGCAG : what is its binding signal with OsWRKY34 (Oryza sativa, UniProt Q0JBA9 1-250)?
output: 8030 fluorescence intensity (a.u.)

input: Record AGTTGGGCAGCAGTGGGTTGTGATATACTATGTGAATTATCGGAGTCACCTAGTGCAG : what is its binding signal with OsWRKY34 (Oryza sativa, UniProt Q0JBA9 1-250)?
output: 9100 fluorescence intensity (a.u.)
